experimental_protocol: Pharmacokinetic study in rats
Assay type: in vivo
test_conditions: male, Sprague Dawley, rat, plasma, iv, 1 mg/kg
quantity: clearance (mL/min/kg)
Expressed in mL/min/kg, but write only the number.

(Q) # clearance lookup, item CCC[C@@]1(CCc2ccccc2)CC(O)=C([C@H](CC)c2cccc(NS(=O)(=O)c3ccc(C(F)(F)F)cn3)c2)C(=O)O1
(A) 4.55

###

experimental_protocol: Pharmacokinetic study in rats
Type: in vivo
test_conditions: male, Sprague Dawley, rat, plasma, po, 5 mg/kg
quantity: Tmax (h)
Lab book: enter the figure in h, no units written.

(Q) Given the compound CCC[C@@]1(CCc2ccccc2)CC(O)=C([C@H](CC)c2cccc(NS(=O)(=O)c3ccc(C(F)(F)F)cn3)c2)C(=O)O1 , what is its reported Tmax?
(A) 3

###

experimental_protocol: Pharmacokinetic study in rats
Assay type: in vivo
test_conditions: male, Sprague Dawley, rat, plasma, iv, 1 mg/kg
quantity: Vd (L/kg)
Answer with a number only, understood to be in L/kg.

(Q) So what does the record say about Vd for CCC[C@@]1(CCc2ccccc2)CC(O)=C([C@H](CC)c2cccc(NS(=O)(=O)c3ccc(C(F)(F)F)cn3)c2)C(=O)O1 [TPV, tipranavir] ?
(A) 0.903

Data provenance is paper PMC11244656.
